// reported Fold change in binding relative to BKO-4A8 for each item listed
- TEST_TARGET: T1, human CXCR2 (human, UniProt P25025 1-360)
- T1 construct: also called CXC chemokine receptor 2; hCXCR2
- T1 sequence: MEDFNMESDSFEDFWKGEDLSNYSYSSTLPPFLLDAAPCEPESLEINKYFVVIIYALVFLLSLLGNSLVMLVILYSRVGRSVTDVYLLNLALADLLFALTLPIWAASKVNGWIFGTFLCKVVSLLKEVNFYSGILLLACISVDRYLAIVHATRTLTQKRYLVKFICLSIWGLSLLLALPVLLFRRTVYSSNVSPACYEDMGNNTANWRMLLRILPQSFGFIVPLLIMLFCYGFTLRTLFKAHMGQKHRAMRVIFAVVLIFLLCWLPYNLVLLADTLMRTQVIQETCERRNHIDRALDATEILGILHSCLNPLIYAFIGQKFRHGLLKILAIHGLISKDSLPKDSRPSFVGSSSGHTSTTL
- PROCEDURE_SUMMARY: flow cytometry, CXCR2-transfected Expi293F cells
- Method: Harvested cells were resuspended in FACS buffer (1×PBS+0.5% (w/v) bovine serum albumin (BSA)+2 mM EDTA pH 7.2). Approximately 2×10⁵ cells were added per well in a 96-well round-bottomed plate. Cells were pelleted by centrifugation at 400 g for 5 mins at 4° C. and supernatants discarded. 25 μL of each test antibody or control antibody was added to the cells and incubated for 30 minutes at 4° C. Cells were washed twice in 100 μL FACS buffer followed by centrifugation at 400 g for 5 mins at 4° C. […]
Your answer should be a plain number; it is taken to be in fold.

Solved cases below.
BINDER: BKO-4A8 variant VH S32W (antibody, human IgG4 S228P, lambda, V domains shown, IgG4 S228P, lambda; parental light chain; also called 4A8 VH S32W) VH: EVQLLESGGGLVQPGGSLRLSCAASGFTFSSWTMSWVRQAPGKGLEWVSAISGRGRNTYYADSVKGRFTISRDNSRNTLYLQMNSLRAEDTAVYYCAIQMGYWGQGILVTVSS VL: QSALTQPPSASGSPGQSVTISCIGTSSDVGGYNYVSWYQQHPDKAPKLMIYEVNKRPSGVPDRFSGSKSGNTASLTVSGLQAEDEADYYCSSYAGNNNFGVFGGGTKLTVLG
MEASURED: 0.83

BINDER: BKO-4A8 variant VH M96A (antibody, human IgG4 S228P, lambda, V domains shown, IgG4 S228P, lambda; parental light chain; also called 4A8 VH M96A) VH: EVQLLESGGGLVQPGGSLRLSCAASGFTFSSSTMSWVRQAPGKGLEWVSAISGRGRNTYYADSVKGRFTISRDNSRNTLYLQMNSLRAEDTAVYYCAIQAGYWGQGILVTVSS VL: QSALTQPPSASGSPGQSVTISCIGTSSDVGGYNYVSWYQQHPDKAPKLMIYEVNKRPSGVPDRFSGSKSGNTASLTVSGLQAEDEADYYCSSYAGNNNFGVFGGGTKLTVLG
MEASURED: 1.5

Prompt: Give its Fold change in binding relative to BKO-4A8 value. Item: BKO-4A8 variant VL N94K (antibody, human IgG4 S228P, lambda, V domains shown, IgG4 S228P, lambda; parental heavy chain; also called 4A8 VL N94K) VH: EVQLLESGGGLVQPGGSLRLSCAASGFTFSSSTMSWVRQAPGKGLEWVSAISGRGRNTYYADSVKGRFTISRDNSRNTLYLQMNSLRAEDTAVYYCAIQMGYWGQGILVTVSS VL: QSALTQPPSASGSPGQSVTISCIGTSSDVGGYNYVSWYQQHPDKAPKLMIYEVNKRPSGVPDRFSGSKSGNTASLTVSGLQAEDEADYYCSSYAGKNNFGVFGGGTKLTVLG
Completion: 1.33

Origin of measurements: patent US20240301076A1
